The entries below come with measured deltaT values attached.
Test system: Oryctolagus cuniculus
Assay: Pyrogenic activity in New Zealand albino rabbit assessed as change in maximum body temperature at 100 nmol/kg, sc using liposomal formulation measured at 30 mins time intervals for 9 to 24 hrs (reference value: 0.2 degC)
Format: toxicity, organism-based
Settings: in vivo
Give the quantity in °C, number only.

compound	target or test system	deltaT, °C
CCCCCCCCCCCCCCCCCC(=O)NCCCC[C@H](NC(=O)CC[C@@H](NC(=O)[C@H](CC)NC(=O)CO[C@H]1[C@H](O[C@@H]2O[C@H](CO)[C@@H](O)[C@H](O)[C@H]2NC(C)=O)[C@@H](CO)OC(O)[C@@H]1NC(C)=O)C(N)=O)C(=O)O (some centres undefined)	Oryctolagus cuniculus	0.4
CCCCCCCCCCCCCCC(CCCCCCCCCCCCCC)C(=O)OC[C@H]1OC(O)[C@H](NC(C)=O)[C@@H](OCC(=O)N[C@@H](CC)C(=O)N[C@H](CCC(=O)O)C(N)=O)[C@@H]1O (some centres undefined)	Oryctolagus cuniculus	0.5
CCCCCCCCCCCCCCCCCC(=O)OC[C@H]1OC(O)[C@H](NC(C)=O)[C@@H](OCC(=O)N[C@@H](CC)C(=O)N[C@H](CCC(=O)O)C(N)=O)[C@@H]1O (some centres undefined)	Oryctolagus cuniculus	0.6

stdin: What does the data say about its deltaT? Entry: CCCCCCCCCCCCCCC(CCCCCCCCCCCCCC)C(=O)N[C@H]1[C@H](O[C@H]2[C@H](OCC(=O)N[C@@H](CC)C(=O)N[C@H](CCC(=O)O)C(N)=O)[C@@H](NC(C)=O)C(O)O[C@@H]2CO)O[C@H](CO)[C@@H](O)[C@@H]1O (some centres undefined)
stdout: 0.5

----------
Test system: Oryctolagus cuniculus
Assay: Pyrogenic activity in New Zealand albino rabbit assessed as change in maximum body temperature at 100 nmol/kg, sc using liposomal formulation measured at 30 mins time intervals for 9 to 24 hrs (reference value: 0.2 degC)
Type: toxicity, organism-based
Details: in vivo
parameter: deltaT (°C)
Give the quantity in °C, number only.

// solved cases for deltaT follow
compound	parameter	observed value
CCCCCCCCCCCCCCC(CCCCCCCCCCCCCC)C(=O)NCCCC[C@H](NC(=O)CC[C@@H](NC(=O)[C@H](CC)NC(=O)CO[C@H]1[C@H](O[C@@H]2O[C@H](CO)[C@@H](O)[C@H](O)[C@H]2NC(C)=O)[C@@H](CO)OC(O)[C@@H]1NC(C)=O)C(N)=O)C(=O)O (some centres undefined)	deltaT	0.5
CCCCCCCCCCCCCCCCCC(=O)NCCCC[C@H](NC(=O)CC[C@@H](NC(=O)[C@H](CC)NC(=O)CO[C@H]1[C@H](O)[C@@H](CO)OC(O)[C@@H]1NC(C)=O)C(N)=O)C(=O)O (some centres undefined)	deltaT	0.5
CCCCCCCCCCCCCCCCCC(=O)N[C@H]1[C@H](O[C@H]2[C@H](OCC(=O)N[C@@H](CC)C(=O)N[C@H](CCC(=O)O)C(N)=O)[C@@H](NC(C)=O)C(O)O[C@@H]2CO)O[C@H](CO)[C@@H](O)[C@@H]1O (some centres undefined)	deltaT	0.4

stdin: What does the data say about its deltaT? Entry: CCCCCCCCCCCCCCC(CCCCCCCCCCCCCC)C(=O)NCCCC[C@H](NC(=O)CC[C@@H](NC(=O)[C@H](CC)NC(=O)CO[C@H]1[C@H](O)[C@@H](CO)OC(O)[C@@H]1NC(C)=O)C(N)=O)C(=O)O (some centres undefined)
stdout: 0.6

----------
The entries below come with measured deltaT values attached.
Test system: Oryctolagus cuniculus
Assay: Pyrogenic activity in Chinchilla rabbit assessed as change in maximum body temperature at 100 nmol/kg, iv using micellar foemulation measured at 30 mins time intervals
Type: toxicity, organism-based
Details: in vivo, 0.5 h
Give the quantity in °C, number only.

// solved cases for deltaT follow
compound	deltaT / °C
CCCCCCCCCCCCCCCCCC(=O)NCCCC[C@H](NC(=O)CC[C@@H](NC(=O)[C@H](CC)NC(=O)CO[C@H]1[C@H](O[C@@H]2O[C@H](CO)[C@@H](O)[C@H](O)[C@H]2NC(C)=O)[C@@H](CO)OC(O)[C@@H]1NC(C)=O)C(N)=O)C(=O)O (some centres undefined)	0.5
CCCCCCCCCCCCCCC(CCCCCCCCCCCCCC)C(=O)NCCCC[C@H](NC(=O)CC[C@@H](NC(=O)[C@H](CC)NC(=O)CO[C@H]1[C@H](O)[C@@H](CO)OC(O)[C@@H]1NC(C)=O)C(N)=O)C(=O)O (some centres undefined)	0.7

stdin: What does the data say about its deltaT? Entry: CCCCCCCCCCCCCCCCCC(=O)NCCCC[C@H](NC(=O)CC[C@@H](NC(=O)[C@H](CC)NC(=O)CO[C@H]1[C@H](O)[C@@H](CO)OC(O)[C@@H]1NC(C)=O)C(N)=O)C(=O)O (some centres undefined)
stdout: 0.4

stdin: What does the data say about its deltaT? Entry: CCCCCCCCCCCCCCC(CCCCCCCCCCCCCC)C(=O)NCCCC[C@H](NC(=O)CC[C@@H](NC(=O)[C@H](CC)NC(=O)CO[C@H]1[C@H](O[C@@H]2O[C@H](CO)[C@@H](O)[C@H](O)[C@H]2NC(C)=O)[C@@H](CO)OC(O)[C@@H]1NC(C)=O)C(N)=O)C(=O)O (some centres undefined)
stdout: 0.4

----------
Tested on: Mus musculus
Assay: Immuno-stimulatory activity in ICR mouse assessed as induction of GM-progenitor cell proliferation in serum at […], sc using liposomal formulation measured after 6 hrs
Assay type: functional, organism-based
The source made the active and inactive calls. The rule behind the calls is not given here.
Return exactly one item of active, inactive

compound	answer label
CCCCCCCCCCCCCCC(CCCCCCCCCCCCCC)C(=O)NCCCC[C@H](NC(=O)CC[C@@H](NC(=O)[C@H](CC)NC(=O)CO[C@H]1[C@H](O)[C@@H](CO)OC(O)[C@@H]1NC(C)=O)C(N)=O)C(=O)O (stereo partly drawn)	active

stdin: GET /call?item= CCCCCCCCCCCCCCC(CCCCCCCCCCCCCC)C(=O)N[C@H]1[C@H](O[C@H]2[C@H](OCC(=O)N[C@@H](CC)C(=O)N[C@H](CCC(=O)O)C(N)=O)[C@@H](NC(C)=O)C(O)O[C@@H]2CO)O[C@H](CO)[C@@H](O)[C@@H]1O (stereo partly drawn) returns the recorded outcome of this test.
stdout: inactive

stdin: GET /call?item= CCCCCCCCCCCCCCC(CCCCCCCCCCCCCC)C(=O)OC[C@H]1OC(O)[C@H](NC(C)=O)[C@@H](OCC(=O)N[C@@H](CC)C(=O)N[C@H](CCC(=O)O)C(N)=O)[C@@H]1O (stereo partly drawn) returns the recorded outcome of this test.
stdout: active

----------
Test system: Oryctolagus cuniculus
Test: Pyrogenic activity in Chinchilla rabbit assessed as change in maximum body temperature at 100 nmol/kg, iv using micellar foemulation measured at 30 mins time intervals
Format: toxicity, organism-based
Settings: in vivo, 0.5 h
parameter: deltaT (°C)
Give the quantity in °C, number only.

// solved cases for deltaT follow
molecule	target or test system	observed value
CCCCCCCCCCCCCCCCCC(=O)N[C@H]1[C@H](O[C@H]2[C@H](OCC(=O)N[C@@H](CC)C(=O)N[C@H](CCC(=O)O)C(N)=O)[C@@H](NC(C)=O)C(O)O[C@@H]2CO)O[C@H](CO)[C@@H](O)[C@@H]1O (stereo not given in full)	Oryctolagus cuniculus	0.5
CC(=O)N[C@H]1C(O)O[C@H](CO)[C@@H](O)[C@@H]1O[C@H](C)C(=O)N[C@@H](C)C(=O)N[C@H](CCC(=O)O)C(N)=O (stereo not given in full) [MURAMYL DIPEPTIDE]	Oryctolagus cuniculus	2.9
CCCCCCCCCCCCCCC(CCCCCCCCCCCCCC)C(=O)OC[C@H]1OC(O)[C@H](NC(C)=O)[C@@H](OCC(=O)N[C@@H](CC)C(=O)N[C@H](CCC(=O)O)C(N)=O)[C@@H]1O (stereo not given in full)	Oryctolagus cuniculus	0.6
CCCCCCCCCCCCCCC(CCCCCCCCCCCCCC)C(=O)N[C@H]1[C@H](O[C@H]2[C@H](OCC(=O)N[C@@H](CC)C(=O)N[C@H](CCC(=O)O)C(N)=O)[C@@H](NC(C)=O)C(O)O[C@@H]2CO)O[C@H](CO)[C@@H](O)[C@@H]1O (stereo not given in full)	Oryctolagus cuniculus	0.7

stdin: What does the data say about its deltaT? Entry: CCCCCCCCCCCCCCCCCC(=O)OC[C@H]1OC(O)[C@H](NC(C)=O)[C@@H](OCC(=O)N[C@@H](CC)C(=O)N[C@H](CCC(=O)O)C(N)=O)[C@@H]1O (stereo not given in full)
stdout: 0.6

----------
Target: NACHT, LRR and PYD domains-containing protein 3 (Homo sapiens, UniProt Q96P20)
Sequence (Q96P20 whole entry, the tested form may be a part): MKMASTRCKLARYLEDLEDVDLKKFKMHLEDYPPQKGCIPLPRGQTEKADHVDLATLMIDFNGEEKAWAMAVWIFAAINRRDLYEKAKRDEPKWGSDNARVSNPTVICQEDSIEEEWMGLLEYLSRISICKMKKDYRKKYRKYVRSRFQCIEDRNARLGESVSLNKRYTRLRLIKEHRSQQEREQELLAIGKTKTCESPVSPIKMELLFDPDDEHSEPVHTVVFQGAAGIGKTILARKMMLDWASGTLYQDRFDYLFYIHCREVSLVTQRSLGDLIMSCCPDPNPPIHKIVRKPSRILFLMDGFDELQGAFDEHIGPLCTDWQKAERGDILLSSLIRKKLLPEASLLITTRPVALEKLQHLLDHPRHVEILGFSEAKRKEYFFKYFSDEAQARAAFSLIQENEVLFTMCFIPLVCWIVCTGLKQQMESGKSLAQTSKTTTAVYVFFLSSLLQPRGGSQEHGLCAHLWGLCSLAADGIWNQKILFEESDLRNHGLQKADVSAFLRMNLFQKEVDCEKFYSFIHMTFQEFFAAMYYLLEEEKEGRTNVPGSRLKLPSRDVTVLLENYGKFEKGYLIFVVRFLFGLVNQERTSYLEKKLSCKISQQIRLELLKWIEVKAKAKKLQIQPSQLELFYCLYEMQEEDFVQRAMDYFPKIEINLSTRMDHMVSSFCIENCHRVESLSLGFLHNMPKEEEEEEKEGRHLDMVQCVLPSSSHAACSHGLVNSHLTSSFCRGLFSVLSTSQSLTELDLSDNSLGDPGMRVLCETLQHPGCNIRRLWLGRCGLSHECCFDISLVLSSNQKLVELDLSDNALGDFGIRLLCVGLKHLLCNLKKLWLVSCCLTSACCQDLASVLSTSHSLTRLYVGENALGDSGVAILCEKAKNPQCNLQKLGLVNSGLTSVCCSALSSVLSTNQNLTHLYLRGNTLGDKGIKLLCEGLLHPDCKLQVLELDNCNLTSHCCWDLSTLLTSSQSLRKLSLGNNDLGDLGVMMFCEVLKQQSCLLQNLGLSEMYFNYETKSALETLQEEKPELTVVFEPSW
Experiment: Agonist activity at NLRP3 in human […] cells assessed as induction of LPS-induced IL-1beta secretion by HEK-Blue reporter cell based assay

molecule	Activity
CCCCCCCCCCCCCCC(CCCCCCCCCCCCCC)C(=O)NCCCC[C@H](NC(=O)CC[C@@H](NC(=O)[C@H](CC)NC(=O)CO[C@H]1[C@H](O)[C@@H](CO)OC(O)[C@@H]1NC(C)=O)C(N)=O)C(=O)O (stereo partly drawn)	Active
CCCCCCCCCCCCCCC(CCCCCCCCCCCCCC)C(=O)N[C@H]1[C@H](O[C@H]2[C@H](OCC(=O)N[C@@H](CC)C(=O)N[C@H](CCC(=O)O)C(N)=O)[C@@H](NC(C)=O)C(O)O[C@@H]2CO)O[C@H](CO)[C@@H](O)[C@@H]1O (stereo partly drawn)	Active
CCCCCCCCCCCCCCCCCC(=O)NCCCC[C@H](NC(=O)CC[C@@H](NC(=O)[C@H](CC)NC(=O)CO[C@H]1[C@H](O)[C@@H](CO)OC(O)[C@@H]1NC(C)=O)C(N)=O)C(=O)O (stereo partly drawn)	Active
